Molecular target: T1, corticotropin-releasing hormone (CRH) peptide (human and mouse, not fully specified)
T1 peptide: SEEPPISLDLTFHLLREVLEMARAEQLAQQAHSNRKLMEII
Assay: cell-based or functional assay
endpoint_label: hCRHR1 Reporter IC50 (nM)
Field: numeric (nM). Do not append units.

Task: Field request: hCRHR1 Reporter IC50 | item: PR302341 (antibody, human IgG1, kappa, V domains shown, Mouse variable domains, expressed recombinantly with human IgG1 wildtype Fc; also called Series 10 mAb) VH: EVQLQQSGPELVKPGASVKMSCKASGYTFTDYFMKWVKQSHGESLEWIGVINPNNGDIFYNQKFKGKATLTVDKSSSTAFMQLNSLTSEDSAVYSCARGTDRALFAYWGQGTLVAVSA VL: DVLMTQTPLSLPVSLGDQASISCRSGQSIVHSDGNTYLEWYLQRPGQSPRLLIYKVSNRFSGVPDRFSGSGSGTDFTLKISRVGAEDLGIYYCFQGSHIPWTFGGGTKLEVKR
Result: 0.503

Task: Need hCRHR1 Reporter IC50 of PR302309 (antibody, human IgG1, kappa, V domains shown, Mouse variable domains, expressed recombinantly with human IgG1 wildtype Fc; also called Series 7 mAb) VH: QIQLVQSGPELKKPGETVKISCKASGYTFTNYGMNWVKQAPGKVLKWMGWINTYTGEPIYTDDFKGRFAFSLETSASTAYLQINNLKNEDTATYFCSRSTMITTGGVFAYWGQGTLVTVSA VL: DVLMAQTPLSLPVSLGDQASISCRSSQTIVHSDGNTYLEWYLQKPGQSPKLLIYKVSNRFSGVPDRFSGSGSGTDFTLKISRVEAEDLGVYYCFQGSHVPWTFGGGTKLEIKR , thanks.
Result: 1.38

Task: Given PR302328 (antibody, human IgG1, kappa, V domains shown, Mouse variable domains, expressed recombinantly with human IgG1 wildtype Fc; also called Series 9 mAb) VH: EVKLVESGGGLVKPGGSLKLSCAASGFTFSSYAMSWVRQTPEKRLEWVASIRSGGTTYYPDSVKGRFTISRDNARNILYLQMSSLRSEDTAIYYCTRGIDWGQGTLVTVSA VL: NIVMTQTPKFLLVSAGDRVTITCKASQSVNNDVAWYQQKPGQSPKLLIYYASNRYTGVPDRFTGSGYGTDFTFTISTVQAEDLAVYFCQQDYSSWTFGGGTKLEIKR , state its recorded hCRHR1 Reporter IC50.
Result: 0.545

Task: // lookup hCRHR1 Reporter IC50 for PR004289 (antibody, human IgG1, kappa, V domains shown, Expressed recombinantly with human IgG1 wildtype Fc; also called Hybridoma Clone 16g2; Series 1 mAb) VH: EVQLVESGGVLVQPGGSLRLSCAASGFIFSSYWMTWVRQAPGKGLEWVANIKQDGSEKYYVDSVKGRFTISRDNAKNSLFLQMNSLRAEDTAVYYCARTLIFDYWGQGTLVTVSS VL: DIVMTQSPLSLPVTPGEPASISCRSSQSLLHSTGYNSLEWYLQKPGQSPQLLIYLGSNRASGVPDRFSGSGSGTDFTLKISRVEAEDVGIYYCMQTLQTPITFGQGTRLEIKR
Result: 3.13

Task: Given the binder PR302332 (antibody, human IgG1, kappa, V domains shown, Mouse variable domains, expressed recombinantly with human IgG1 wildtype Fc; also called Series 7 mAb) VH: QIQLVQSGPELKKPGETVKISCKASGYTFTNFGMHWVKQAPGKVLKWMGWINTYTGEPIYAADFKGRFAFSLETSASTAYLQINNLKNEDTATYFCSRSTMITTGGVFAYWGQGTLVTVSA VL: DVLMAQTPLSLPVSLGDQASISCRSSQSIVHSDGNTYLEWYLQKPGQSPKLLIYKVSNRFSGVPDRFSGSGSGTDFTLKISRVEAEDLGVYYCFQGSHVPWTFGGGTKLEIKR , what is its reported hCRHR1 Reporter IC50?
Result: 1.93

Task: What does the data say about its hCRHR1 Reporter IC50? Entry: PR302315 (antibody, human IgG1, kappa, V domains shown, Mouse variable domains, expressed recombinantly with human IgG1 wildtype Fc; also called Series 8 mAb) VH: DVQLVESGGGLMQPGGSRKLSCVASGFTFSSFGMHWVRQAPEKGLEWVAYISSGSSIIYYADTVKGRFTISRDNPKNILFLQMTSLRSEDTAMYYCARDITTATFAYWGQGTLVTVSA VL: DVVMTQTPLSLPVSLGDQASISCRSSQSLVHSNGNTYLHWYLQKPGQSPKLLIYKVSNRFSGVPDRFSGSGSGTDFTLKISRVEAEDLGVYFCSQSTHVPWTFGGGTKLEIKR
Result: 13.9

Task: What does the data say about its hCRHR1 Reporter IC50? Entry: PR301806 (antibody, human IgG1, kappa, V domains shown, Mouse variable domains, expressed recombinantly with human IgG1 wildtype Fc; also called Series 6 mAb) VH: QVQLQQPGAELVKPGTSVKMSCKASGYTFTSYWMHWVKQRPGQGLEWIGDIYPGSDSTNYNEKFKSKASLTVDTSSSTAYMQLSSLTSEDSAVYYCARSITTTTFWYFDVWGAGTTVTVSS VL: DVLMTQTPLSLPVSLGDQASISCRSSQSFVYSNGNTYLQWYLQKPGQSPKLLIYKVSNRFSGVPDRFSGSGSGTDFTLKISRVEAEDLGVYYCFQGSHVPPTFGAGTKLELKR
Result: 4.53

Task: Which measured hCRHR1 Reporter IC50 value corresponds to PR302339 (antibody, human IgG1, kappa, V domains shown, Mouse variable domains, expressed recombinantly with human IgG1 wildtype Fc; also called Series 9 mAb) VH: EVKLVESGGGLVKPGGSLKLSCAASGFTFSSYALSWVRQTPEKRLEWVASIRSGGTTYYPDSVKGRFTISRDNARNILYLQMSSLRSEDTAIYYCTRGIDWGQGTLVTVSA VL: NIVMTQTPKFLLVSAGDRVTITCKASQSVNNDVAWYQQKPGQSPKLLIYYASNRYTGVPDRFTGSGYGTDFTFTISTVQAEDLAVYFCQQDYSSWTFGGGTKLEIKR ?
Result: 0.852

Task: Data request, read-out hCRHR1 Reporter IC50, for PR301777 (antibody, human IgG1, kappa, V domains shown, Mouse variable domains, expressed recombinantly with human IgG1 wildtype Fc; also called Series 5 mAb) VH: EMKLEESGGGLVQPGGSMKLSCVASGFTFSNYWMNWVRQSPEKGLEWVAEIRLKSNNYATHYAESVKGRFTISRDDSKSGVYLQMNNLGAEDTGIYYCTVGTLVYWGQGTLVTVSA VL: DIVLTQSPASLAVSLGQRATISCRASQSVSTSTYNYMHWFQQKPGQPPKLLIKFASNLESGVPARFSGSGSGTDFTLNIHPVEEEDTATFYCQHSWEIPYTFGGGTKLEIKR
Result: 0.609

Task: Any idea what hCRHR1 Reporter IC50 was measured for PR301790 (antibody, human IgG1, kappa, V domains shown, Mouse variable domains, expressed recombinantly with human IgG1 wildtype Fc; also called Series 5 mAb) VH: EMKLEESGGGLVQPGGSMKLSCVASGFTFSNYWMNWVRQSPEKGLEWVAEIRLKSNNYATHYAESVKGRFTISRDDSKSSVYLQMNNLRAEDTGIYYCTIGTLVYWGQGTLVTVSA VL: DIVLTQSPASLAVSLGQRATISCRASQSVSTSSYNYMHWYQQKPGQPPKLLIKFASNLESGVPARFSGSGSGTDFTLNIHPVEEEDTATFYCQHSWEIPYTFGGGTKLEIKR ?
Result: 0.055
